The values you see were collected from PubChem BioAssay AID1220.

Biological target: Mannose-6-phosphate isomerase (Homo sapiens) (UniProt P34949)
Sequence (P34949 whole entry, looked up): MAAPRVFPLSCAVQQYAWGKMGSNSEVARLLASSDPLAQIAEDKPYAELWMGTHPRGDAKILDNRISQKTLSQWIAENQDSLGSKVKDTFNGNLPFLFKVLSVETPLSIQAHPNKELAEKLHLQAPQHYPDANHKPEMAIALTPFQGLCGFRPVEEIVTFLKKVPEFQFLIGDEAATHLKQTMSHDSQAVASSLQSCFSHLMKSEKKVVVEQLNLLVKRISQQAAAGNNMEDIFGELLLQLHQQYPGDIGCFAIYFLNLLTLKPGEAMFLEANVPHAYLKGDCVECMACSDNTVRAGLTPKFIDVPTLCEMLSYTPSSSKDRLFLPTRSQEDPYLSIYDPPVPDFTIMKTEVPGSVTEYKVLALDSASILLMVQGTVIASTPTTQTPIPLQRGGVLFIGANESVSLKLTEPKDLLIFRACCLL
Assay: MPI inhibition at elevated mannose 6-phosphate – biochemical, fluorescence intensity, high mannose 6-phosphate, primary screen (AID 1220)
Details: recombinant PMI enzyme, coupled fluorescence intensity; at 20 µM
The campaign covered roughly 190,000 compounds. About 1,300 (0.68%) were called active. No stated cut-off is given here; in the data, active means inhibition above about 50%; inactive means the rest. What follows is part of a selection rich in actives, with near analogues and random picks from the rest.
Outcome field: choose from active, inactive

COMPOUND	TARGET OF ASSAY	QUALITATIVE LABEL
O=C1C2C3C=CC(C3)C2C(=O)N1/N=C/c1ccc(-c2ccccc2[N+](=O)[O-])o1 (stereo not drawn)	Mannose-6-phosphate isomerase (Homo sapiens) (UniProt P34949)	active
CCc1nc2c(sc3nc4c(cc32)COC(C)(C)C4)c(=O)n1CCN(CC)CC	Mannose-6-phosphate isomerase (Homo sapiens) (UniProt P34949)	inactive
C=CCNC1=C(Cl)C(=O)c2ccccc2C1=O	Mannose-6-phosphate isomerase (Homo sapiens) (UniProt P34949)	inactive
O=[N+]([O-])c1ccccc1-c1ccc(/C=N/n2cnnc2)o1	Mannose-6-phosphate isomerase (Homo sapiens) (UniProt P34949)	active
Cc1noc(C(=O)Nc2ccccc2C(F)(F)F)c1Cl	Mannose-6-phosphate isomerase (Homo sapiens) (UniProt P34949)	active

Now examine the next entry.
Which result was noted for this compound in the test: CCCc1nc2c(sc3nc4c(cc32)COC(C)(C)C4)c(=O)n1CCN(C)C active

###

Target: Mannose-6-phosphate isomerase (Homo sapiens) (UniProt P34949)
Test: MPI inhibition at elevated mannose 6-phosphate – biochemical, fluorescence intensity, high mannose 6-phosphate, primary screen (AID 1220)
Details: recombinant PMI enzyme, coupled fluorescence intensity; at 20 µM
In all, about 190,000 compounds went through this assay and about 1,300 (0.68%) were called active. No stated cut-off is given here; in the data, active means inhibition above about 50%; inactive means the rest. The entries come from a sample that favours actives as a whole.
Outcome field: choose from yes = active, no = inactive

As a guide, the following entries are already answered.
COMPOUND	QUALITATIVE LABEL
COc1ccc(/C=N/NS(C)(=O)=O)c(OC)c1	no
C#CCNC(=O)C1=C[C@H](c2csc3ccccc23)C[C@H](OCCCCO)O1	no
COCc1ccc(O)c2ncccc12	no
CC(=O)c1ccc(N2CCN(c3ccc(C(N)=O)cc3[N+](=O)[O-])CC2)cc1	no
Cc1ccc(S(=O)(=O)NNC(=O)c2sccc2-n2cccc2)cc1	no
CCc1ccccc1OCCCCCNCCO	no
CN(C1=C(NC(=O)c2ccc(Cl)cc2)C(=O)c2ccccc2C1=O)c1ccccc1	no
Clc1cccc(Cl)c1Cn1cnc2c(N3CCCCCC3)ncnc21	no
CC(=O)N1CC=C2C(C#N)=C(N)C(C#N)(C#N)C(CCc3ccccc3)C2C1 (configuration not stated)	no
Cc1ccc(O)c(CNc2cccc3cccnc23)c1	yes

Which result was noted for this compound in the test: COc1ccc(N2CCN(c3ccc(C(N)=O)cc3[N+](=O)[O-])CC2)cc1 no

Which result was noted for this compound in the test: O=C(NC1=C(Nc2ccc(F)cc2)C(=O)c2ccccc2C1=O)c1ccc(Cl)cc1 yes

###

Target: Mannose-6-phosphate isomerase (Homo sapiens) (UniProt P34949)
Experiment: MPI inhibition at elevated mannose 6-phosphate – biochemical, fluorescence intensity, high mannose 6-phosphate, primary screen (AID 1220)
Settings: recombinant PMI enzyme, coupled fluorescence intensity; at 20 µM; hits give high values
The whole screen tested about 190,000 compounds, of which about 1,300 (0.68%) were called active. Many of the other results were omitted from the sample, so actives are more common in it than they were.
EXPERIMENTAL ENDPOINT: inhibition (%)
The figure you give is taken to be in %; do not add the unit.

Can you share its inhibition? I mean this molecule: COc1cc(N=c2ssnc2Cl)cc(OC)c1 27.3

Can you share its inhibition? I mean this molecule: CCOC(=O)/C(C#N)=C1/SC(CC)C(=O)N1c1ccc(C)cc1 (configuration not stated) -25

Can you share its inhibition? I mean this molecule: Cc1ccccc1-c1nsc(SCC(=O)Nc2ccc3c(c2)OCO3)n1 14.2

Can you share its inhibition? I mean this molecule: CCOc1ccc(C(=O)CCNC(Cc2cnc[nH]2)C(=O)O)cc1 (configuration not stated) 3.4

Can you share its inhibition? I mean this molecule: O=c1cc(CN2CCN(c3ccccn3)CC2)nc2sccn12 9.8

Can you share its inhibition? I mean this molecule: COc1ccccc1/C=N/Nc1cc(N(C)C)nc(N(C)C)n1 63.4

Can you share its inhibition? I mean this molecule: O=C1c2ccccc2C(=O)c2c1ncn2-c1ccccc1 59.1

Can you share its inhibition? I mean this molecule: O=C(CN1C(=O)S/C(=C\c2ccc(O)cc2)C1=O)c1ccccc1 12.5

Can you share its inhibition? I mean this molecule: COc1cc2c(cc1OC)CN(C(=O)CSc1nnc(C)s1)CC2 -13.4

Can you share its inhibition? I mean this molecule: COc1ccc(OC)c(N=C2C(=O)Nc3ccccc32)c1 5.1

###

Known inhibition of a selection of compounds
Biological target: Mannose-6-phosphate isomerase (Homo sapiens) (UniProt P34949)
Test: MPI inhibition at elevated mannose 6-phosphate – biochemical, fluorescence intensity, high mannose 6-phosphate, primary screen (AID 1220)
Details: recombinant PMI enzyme, coupled fluorescence intensity; at 20 µM; hits give high values
Hit rate of the full screen: of about 190,000 compounds, about 1,300 (0.68%) were called active. The sample holds actives, similar compounds and a random draw of the others, so the mix is not that of the screen.
The figure you give is taken to be in %; do not add the unit.

These solved cases illustrate the format of a correct answer.
COMPOUND	TARGET OF ASSAY	inhibition / %
COc1cc(CN2CCN(Cc3ccc(C)cc3)C(CCO)C2)ccc1O (stereo not drawn)	Mannose-6-phosphate isomerase (Homo sapiens) (UniProt P34949)	14.3
CC(C)N1CC=C2C(C#N)=C(N)C(C#N)(C#N)C(c3ccccc3)C2C1 (stereo not drawn)	Mannose-6-phosphate isomerase (Homo sapiens) (UniProt P34949)	20.5
CC(C)N1CC=C2C(C#N)=C(N)C(C#N)(C#N)[C@H](c3ccoc3)[C@H]2C1	Mannose-6-phosphate isomerase (Homo sapiens) (UniProt P34949)	58.4
CC[n+]1ccc(/C=C/c2ccc(N(C)C)cc2)c2ccccc21	Mannose-6-phosphate isomerase (Homo sapiens) (UniProt P34949)	-4.8
COC(=O)Cc1sc(-c2ccccn2)nc1-c1ccccc1	Mannose-6-phosphate isomerase (Homo sapiens) (UniProt P34949)	21.2

Form: Entry = COc1ccc(CN2CCN(Cc3ccc(C)cc3)C(CCO)C2)cc1OC (stereo not drawn) | System = Mannose-6-phosphate isomerase (Homo sapiens) (UniProt P34949) | inhibition = ____ -5.7

Form: Entry = CC1(C)CC2CC(C)(CN2C(=O)C23CCC(C)(C(=O)O2)C3(C)C)C1 (stereo not drawn) | System = Mannose-6-phosphate isomerase (Homo sapiens) (UniProt P34949) | inhibition = ____ 9.1

Form: Entry = CCOc1ccc(CN2CCN(S(=O)(=O)c3ccc(NC(C)=O)cc3)CC2)cc1OC | System = Mannose-6-phosphate isomerase (Homo sapiens) (UniProt P34949) | inhibition = ____ -3.6

###

Known inhibition of a selection of compounds
Molecular target: Mannose-6-phosphate isomerase (Homo sapiens) (UniProt P34949)
Assay: MPI inhibition at elevated mannose 6-phosphate – biochemical, fluorescence intensity, high mannose 6-phosphate, primary screen (AID 1220)
Settings: recombinant PMI enzyme, coupled fluorescence intensity; at 20 µM; hits give high values
Screen size: about 190,000 compounds; about 1,300 (0.68%) were called active. The entries come from a sample that favours actives as a whole.

COMPOUND	TARGET OF ASSAY	inhibition
Cc1ccc(C2=NN(CC(=O)NCc3cccs3)C(=O)CC2)cc1	Mannose-6-phosphate isomerase (Homo sapiens) (UniProt P34949)	3.3% (inactive)

Can you share its inhibition? I mean this compound: COc1cc(Br)cc(C=Nc2cccc(C(F)(F)F)c2)c1O 15.9% (inactive)

Can you share its inhibition? I mean this compound: Cc1ccc(NC(=S)Nc2ccc3nc(-c4ccccn4)c(-c4ccccn4)nc3c2)cc1C 63.1% (active)

Can you share its inhibition? I mean this compound: Cc1ccc(NC(=S)Nc2ccc3cn[nH]c3c2)c(C)c1 44% (inactive)

Can you share its inhibition? I mean this compound: Cc1ccc(N=Cc2cc(Br)cc(Cl)c2O)cc1 50.8% (active)

Can you share its inhibition? I mean this compound: COc1ccc(N2CCN(/C(=N\S(=O)(=O)c3ccc(C)cc3)Nc3nc(C)cc(C)n3)CC2)cc1 -1.1% (inactive)

Can you share its inhibition? I mean this compound: Cc1cccc(N=Cc2cc(Br)cc(Cl)c2O)c1 57.8% (active)

Can you share its inhibition? I mean this compound: CCCNC(=S)Nc1ccc2nc(-c3ccccn3)c(-c3ccccn3)nc2c1 -9.4% (inactive)

Can you share its inhibition? I mean this compound: Oc1c(Cl)cc(Cl)cc1/C=N/c1nccs1 -2.8% (inactive)

Can you share its inhibition? I mean this compound: CC(C)CNC(=O)CSc1nc2scc(-c3ccccc3)c2c(=O)[nH]1 -14.2% (inactive)
